# Test system: UO-31
# measurementNotes: NCI tumour cell line growth inhibition, 48 h
Active and inactive are the calls of the source. Rule as the data show it: active = GI50 up to about 1.1 µM and inactive = higher.
// classify into active, inactive

{"compound": "C[Si](C)(C)c1ccc(CC2(Cc3ccc([Si](C)(C)C)cc3)CCNC2)cc1", "classLabel": "inactive"}

## Task Hello, I am checking results. What call was entered for `N#Cc1cnc(-n2[nH]c3c(c2=O)CCCC3)[nH]c1=O` ?
## Result inactive

====

# Tested on: EKVX
# measurementNotes: NCI tumour cell line growth inhibition, 48 h
Activity calls are given as the source filed them. No stated cut-off is given here; in the data, active = GI50 up to about 1.1 µM and inactive = higher.
readoutType: GI50

Example cases with answers are listed next.
{"compound": "C/C(CC(=O)Nc1cc(Cl)c(Cl)cc1Cl)=N\\NC(N)=O", "readoutType": "GI50", "endpointValue": "> 100 µM (inactive)"}
{"compound": "Cc1cc(C)nc(Nc2nc3cc([N+](=O)[O-])ccc3[nH]2)n1", "readoutType": "GI50", "endpointValue": "> 100 µM (inactive)"}
{"compound": "C[n+]1cn(-c2nc3ccccc3nc2[N-]S(=O)(=O)c2ccccc2)c2ccccc21", "readoutType": "GI50", "endpointValue": "> 100 µM (inactive)"}
{"compound": "CCN(CC)c1ccc(/C=C/c2ccnc3ccccc23)cc1", "readoutType": "GI50", "endpointValue": "> 100 µM (inactive)"}
{"compound": "NCCC1CN(C(=O)OCc2ccccc2)c2ccccc21 (stereo not given)", "readoutType": "GI50", "endpointValue": "20.2 µM (inactive)"}
{"compound": "CN1CCC/C1=N\\C#N", "readoutType": "GI50", "endpointValue": "> 100 µM (inactive)"}
{"compound": "O=S(=O)(SC1=NCCN1)c1cccc2ccccc12", "readoutType": "GI50", "endpointValue": "30.1 µM (inactive)"}
{"compound": "COc1ccc(Br)c2c1CC(C(=O)O)CC2 (stereo not given)", "readoutType": "GI50", "endpointValue": "> 100 µM (inactive)"}
{"compound": "Cn1c2ccccc2n2c(=O)c(-c3ccc(O)cc3)nnc12", "readoutType": "GI50", "endpointValue": "21.2 µM (inactive)"}
{"compound": "CCOC(=O)O/C(=C\\c1ccc(OC)cc1)c1c(OC(=O)OCC)n(C(=O)OCC)c2ccccc12", "readoutType": "GI50", "endpointValue": "88.9 µM (inactive)"}

Entry `O=C1c2ccccc2-c2nnc(-c3ccc(Cl)cc3)cc21` , GI50 reported as > 10 µM (inactive)

====

# Tested on: COLO 205
# measurementNotes: NCI tumour cell line growth inhibition, 48 h
Calls of active or inactive are those of the source. Cut-off read from the data, not from the text of the source: active = GI50 up to about 1.1 µM and inactive = higher.
readoutType: GI50

Examples with answers:
{"moleculeSmiles": "CO[C@@H]1C[C@H]2[C@@H]3CC[C@H]([C@H](C)CO)[C@@]3(C)CC[C@@H]2[C@@]2(C)CC[C@H]3C[C@]312", "GI50": "20.1 µM (inactive)"}
{"moleculeSmiles": "CC(C)(C)c1ccc2c(c1)OCc1n[nH]c(n1)COc1cc(C(C)(C)C)ccc1OCCOCCO2", "GI50": "2.31 µM (inactive)"}
{"moleculeSmiles": "NS(=O)(=O)c1cc(Br)c(/N=N\\c2ccc(O)c3ncccc23)c(Br)c1", "GI50": "> 100 µM (inactive)"}

// GI50 value for `CN1CCC/C1=N\C#N` : > 100 µM (inactive)

Noted for `Cc1cc(C)nc(Nc2nc3cc([N+](=O)[O-])ccc3[nH]2)n1` : its GI50 reads > 100 µM (inactive)
